Below, each entry is listed with its recorded kinase still bound, per cent of control.
Target: RPS6KA4 KD2 (human) (UniProt O75676)
Sequence (O75676 whole entry, looked up): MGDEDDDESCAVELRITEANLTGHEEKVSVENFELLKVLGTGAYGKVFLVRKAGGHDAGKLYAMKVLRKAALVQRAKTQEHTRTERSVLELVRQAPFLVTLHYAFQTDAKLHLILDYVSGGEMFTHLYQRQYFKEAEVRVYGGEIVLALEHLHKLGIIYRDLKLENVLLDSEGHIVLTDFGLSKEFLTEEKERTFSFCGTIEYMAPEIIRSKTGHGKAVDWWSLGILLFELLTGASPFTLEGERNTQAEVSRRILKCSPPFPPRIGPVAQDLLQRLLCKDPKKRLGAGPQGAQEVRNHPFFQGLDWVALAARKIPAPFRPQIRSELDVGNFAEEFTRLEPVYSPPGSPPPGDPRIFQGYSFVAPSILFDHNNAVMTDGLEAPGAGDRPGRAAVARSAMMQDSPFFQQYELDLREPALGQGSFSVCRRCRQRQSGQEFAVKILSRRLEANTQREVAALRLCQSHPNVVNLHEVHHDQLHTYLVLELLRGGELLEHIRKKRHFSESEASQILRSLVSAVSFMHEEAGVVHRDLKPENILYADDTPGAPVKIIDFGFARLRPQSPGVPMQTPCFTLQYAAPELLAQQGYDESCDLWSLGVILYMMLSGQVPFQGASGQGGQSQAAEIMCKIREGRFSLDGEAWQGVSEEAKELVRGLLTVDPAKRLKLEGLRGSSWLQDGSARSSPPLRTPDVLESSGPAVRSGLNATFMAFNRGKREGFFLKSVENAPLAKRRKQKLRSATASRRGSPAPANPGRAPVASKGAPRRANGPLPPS
Assay: KINOMEscan competition binding
Conditions: compound 10.0 µM

Smiles record: Cc1cnc(-c2cnc(NCCNc3ccc(C#N)cn3)nc2-c2ccc(Cl)cc2Cl)[nH]1
kinase still bound, per cent of control, %: 80
--
Smiles record: Cn1cc(C2=C(c3ccc(Cl)cc3Cl)C(=O)NC2=O)c2ccccc21
kinase still bound, per cent of control, %: 96
--
Smiles record: O=C1Nc2cc(Br)ccc2/C1=C1/Nc2ccccc2/C1=N\O
kinase still bound, per cent of control, %: 44
--
Smiles record: COc1ccc(CNC(=O)Nc2ncc([N+](=O)[O-])s2)cc1
kinase still bound, per cent of control, %: 85

###

Below, each entry is listed with its recorded kinase still bound, per cent of control.
Target: JAK3 JH1 catalytic (human)
Assay: KINOMEscan competition binding
Details: compound 10.0 µM

Smiles record: COc1ccc(CNC(=O)Nc2ncc([N+](=O)[O-])s2)cc1
kinase still bound, per cent of control (%): 100
--
Smiles record: Cc1cnc(-c2cnc(NCCNc3ccc(C#N)cn3)nc2-c2ccc(Cl)cc2Cl)[nH]1
kinase still bound, per cent of control (%): 100
--
Smiles record: Cn1cc(C2=C(c3ccc(Cl)cc3Cl)C(=O)NC2=O)c2ccccc21
kinase still bound, per cent of control (%): 98
--
Smiles record: O=C1Nc2cc(Br)ccc2/C1=C1/Nc2ccccc2/C1=N\O
kinase still bound, per cent of control (%): 6.3

###

Target: CDK11B (human) (UniProt P21127)
Sequence (P21127 whole entry, looked up): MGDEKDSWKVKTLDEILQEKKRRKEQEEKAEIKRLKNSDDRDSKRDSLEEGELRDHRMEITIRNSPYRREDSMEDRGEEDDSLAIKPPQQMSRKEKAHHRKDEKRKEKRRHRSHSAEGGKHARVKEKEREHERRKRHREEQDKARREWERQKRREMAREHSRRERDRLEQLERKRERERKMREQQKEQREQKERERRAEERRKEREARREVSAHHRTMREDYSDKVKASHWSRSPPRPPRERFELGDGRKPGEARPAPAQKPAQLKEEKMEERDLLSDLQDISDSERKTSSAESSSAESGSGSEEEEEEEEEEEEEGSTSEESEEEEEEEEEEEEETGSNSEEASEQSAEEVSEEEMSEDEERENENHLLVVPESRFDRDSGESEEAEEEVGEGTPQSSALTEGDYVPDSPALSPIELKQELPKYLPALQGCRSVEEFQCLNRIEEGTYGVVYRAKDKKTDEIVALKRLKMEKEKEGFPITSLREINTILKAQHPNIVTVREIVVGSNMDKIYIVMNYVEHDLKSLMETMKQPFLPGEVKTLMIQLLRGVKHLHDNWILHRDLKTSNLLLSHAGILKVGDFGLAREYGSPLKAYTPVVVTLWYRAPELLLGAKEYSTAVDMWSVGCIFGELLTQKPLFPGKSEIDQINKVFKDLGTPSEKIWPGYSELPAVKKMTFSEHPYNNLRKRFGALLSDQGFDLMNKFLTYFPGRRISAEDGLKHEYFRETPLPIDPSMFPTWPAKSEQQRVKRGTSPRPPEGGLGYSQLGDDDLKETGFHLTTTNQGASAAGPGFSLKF
Test: KINOMEscan competition binding
Settings: compound 10.0 µM

Smiles record: O=C1Nc2cc(Br)ccc2/C1=C1/Nc2ccccc2/C1=N\O
Tested target: CDK11B (human) (UniProt P21127)
Value units: %
kinase still bound, per cent of control: 100
//
Smiles record: Cc1cnc(-c2cnc(NCCNc3ccc(C#N)cn3)nc2-c2ccc(Cl)cc2Cl)[nH]1
Tested target: CDK11B (human) (UniProt P21127)
Value units: %
kinase still bound, per cent of control: 100
//
Smiles record: Cn1cc(C2=C(c3ccc(Cl)cc3Cl)C(=O)NC2=O)c2ccccc21
Tested target: CDK11B (human) (UniProt P21127)
Value units: %
kinase still bound, per cent of control: 100
//
Smiles record: COc1ccc(CNC(=O)Nc2ncc([N+](=O)[O-])s2)cc1
Tested target: CDK11B (human) (UniProt P21127)
Value units: %
kinase still bound, per cent of control: 100

###

Below, each entry is listed with its recorded kinase still bound, per cent of control.
Target: MYO3B (human) (UniProt Q8WXR4)
Sequence (Q8WXR4 whole entry, looked up): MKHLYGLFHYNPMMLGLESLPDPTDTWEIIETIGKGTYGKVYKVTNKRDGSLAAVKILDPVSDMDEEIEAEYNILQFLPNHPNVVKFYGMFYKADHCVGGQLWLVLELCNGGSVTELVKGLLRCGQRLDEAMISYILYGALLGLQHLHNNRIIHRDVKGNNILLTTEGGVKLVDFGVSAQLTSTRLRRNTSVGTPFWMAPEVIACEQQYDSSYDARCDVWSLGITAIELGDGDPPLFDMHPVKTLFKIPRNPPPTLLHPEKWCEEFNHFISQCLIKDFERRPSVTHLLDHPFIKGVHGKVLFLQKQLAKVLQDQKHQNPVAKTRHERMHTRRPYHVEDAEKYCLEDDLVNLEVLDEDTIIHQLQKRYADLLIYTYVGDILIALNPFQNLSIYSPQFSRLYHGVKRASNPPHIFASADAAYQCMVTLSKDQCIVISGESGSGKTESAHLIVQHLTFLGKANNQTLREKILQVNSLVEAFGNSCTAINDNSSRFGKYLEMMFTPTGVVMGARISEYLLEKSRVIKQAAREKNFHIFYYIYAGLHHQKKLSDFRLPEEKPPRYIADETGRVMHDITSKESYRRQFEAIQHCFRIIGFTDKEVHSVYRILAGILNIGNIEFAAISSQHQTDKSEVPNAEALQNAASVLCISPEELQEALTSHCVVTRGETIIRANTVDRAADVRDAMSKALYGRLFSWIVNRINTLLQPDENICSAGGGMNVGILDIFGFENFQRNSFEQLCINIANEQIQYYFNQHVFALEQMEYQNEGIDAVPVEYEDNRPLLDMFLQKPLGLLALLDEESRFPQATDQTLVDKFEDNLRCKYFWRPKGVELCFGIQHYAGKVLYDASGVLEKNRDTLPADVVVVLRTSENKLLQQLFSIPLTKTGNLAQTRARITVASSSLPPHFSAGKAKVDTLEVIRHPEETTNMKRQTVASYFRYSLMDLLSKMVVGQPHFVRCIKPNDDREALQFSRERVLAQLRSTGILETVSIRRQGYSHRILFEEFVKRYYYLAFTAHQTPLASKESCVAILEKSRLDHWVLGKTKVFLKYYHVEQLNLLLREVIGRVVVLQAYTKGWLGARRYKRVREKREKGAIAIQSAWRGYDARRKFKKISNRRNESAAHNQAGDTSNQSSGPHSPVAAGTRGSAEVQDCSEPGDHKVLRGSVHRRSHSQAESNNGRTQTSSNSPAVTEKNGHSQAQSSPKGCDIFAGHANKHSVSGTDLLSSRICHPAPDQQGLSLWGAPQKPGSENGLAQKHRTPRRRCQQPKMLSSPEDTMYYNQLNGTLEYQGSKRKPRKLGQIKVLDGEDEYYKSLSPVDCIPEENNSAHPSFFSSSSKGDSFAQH
Assay: KINOMEscan competition binding
Conditions: compound 10.0 µM

Smiles record: Cc1cnc(-c2cnc(NCCNc3ccc(C#N)cn3)nc2-c2ccc(Cl)cc2Cl)[nH]1
Value units: %
kinase still bound, per cent of control: 100
--
Smiles record: COc1ccc(CNC(=O)Nc2ncc([N+](=O)[O-])s2)cc1
Value units: %
kinase still bound, per cent of control: 100
--
Smiles record: Cn1cc(C2=C(c3ccc(Cl)cc3Cl)C(=O)NC2=O)c2ccccc21
Value units: %
kinase still bound, per cent of control: 100
--
Smiles record: O=C1Nc2cc(Br)ccc2/C1=C1/Nc2ccccc2/C1=N\O
Value units: %
kinase still bound, per cent of control: 100

Each recorded value in this set is attributed to the kinase profiling compilation of Christmann-Franck et al. (2016).
